Tested on: HEK293 cells
Experiment: Preliminary screening as DNA vectors, GFP transfection of HEK293 cells
Assay type: cell-based
Details: amino lipid/DOPE liposome with 75 ng plasmid DNA (psin-EGFP-IRES-Puro); number of GFP-expressing cells divided by total nuclei (Hoechst)
Protocol: Cell line: HEK293 cells (ATCC CRL-1573™) Medium: DMEM supplemented with 10% fetal bovine serum (Invitrogen) Mode of screening: cell transfection on 96-well plates Detection (readout): percentage of the number of GFP fluorescent cells relative to the total number of cells (the total number of cells was measured using nucleus dye Hoechst—see FIG. 2). […] 4. […] The absolute transfection efficiency was calculated as follows: […]
Strictly below 4% in Absolute DNA transfection efficiency in HEK293 cells: condition met. Otherwise: condition not met.

COMPOUND | TARGET SYSTEM | ASSIGNED CLASS
CCCCCCCCCCCCCCCCSc1nc(NCCCCCCCC)nc(NCCN(CC)CC)n1 | HEK293 cells | condition not met
CCCCCCCCCCCCCCCNc1nc(NCCCN2CCOCC2)nc(SCCCCCCCCCC)n1 | HEK293 cells | condition not met
CCCCCCCCCCCCCCCCSc1nc(NCCCCCCCCCCCCC)nc(NCC2CCN(C)CC2)n1 | HEK293 cells | condition met
CCCCCCCCCCCCCCCCCCSc1nc(NCCCCCC)nc(NCCCN(C)C)n1 | HEK293 cells | condition not met
CCCCCCCCSc1nc(NCCCCCC)nc(NCCCN(C)C)n1 | HEK293 cells | condition not met
CCCCCCCCCCCCCCCSc1nc(NCCCN(C)C)nc(SCCCCCC)n1 | HEK293 cells | condition not met
CCCCCCCCCCCCCCCCCCSc1nc(NCCCCCCCCCCC)nc(NCC2CCN(C)CC2)n1 | HEK293 cells | condition met
CCCCCCCCCCCSc1nc(NCCCCCC)nc(NCC2CCN(C)CC2)n1 | HEK293 cells | condition not met
CCCCCCCCCCCCSc1nc(NCCCCCCCCCCC)nc(NCCN2CCCCC2)n1 | HEK293 cells | condition met
CCCCCCCCCCCCCCCCCCSc1nc(NCCCCCC)nc(NCCCN2CCN(C)CC2)n1 | HEK293 cells | condition not met
CCCCCCCCCCCCCCSc1nc(NCCCCCCC)nc(NCC2CCN(C)CC2)n1 | HEK293 cells | condition not met
CCCCCCCCCCCCCCCCCCSc1nc(NCCCN(C)C)nc(N(CCCCCCCCCCCC)CCCCCCCCCCCC)n1 | HEK293 cells | condition met
CCCCCCCCCCCCCCSc1nc(NCCN2CCOCC2)nc(SCCCCCCC)n1 [S7S14 D2] | HEK293 cells | condition not met
CCCCCCCCCCSc1nc(NCCCCCCCC)nc(NCCCN(C)C)n1 | HEK293 cells | condition not met
CCCCCCCCCCCCCCCCSc1nc(NCCCCCCCCCCCC)nc(NCCN(C)C)n1 [S16N12 D1] | HEK293 cells | condition not met
CCCCCCCCCCCCCCSc1nc(NCCCN2CCOCC2)nc(SCCCCCCC)n1 | HEK293 cells | condition not met
CCCCCCCCCCCCCCCCCCSc1nc(NCCCCCCCCCCCCCCCC)nc(NCC2CCN(C)CC2)n1 | HEK293 cells | condition met
CCCCCCCCCCCNc1nc(NCCCN2CCOCC2)nc(SCCCCCCCCCC)n1 | HEK293 cells | condition met
